# System: Staphylococcus aureus ATCC 25923 (Reference, basal)
# test-details: MIC, broth microdilution (CLSI)
# Format: cell-based
# condition-set: ATCC25923
measure-name: MIC (µg/mL)

1) CCCCNc1ccc2nc3cc(NCCC)c(N)cc3[n+](CCC)c2c1 [5a1] :: 1
2) CCCCNc1ccc2nc3cc(NCCC)c(N)cc3[n+](CCCC)c2c1 [5d1] :: 16
3) CCCCCCCC[n+]1c2cc(NCCCC)ccc2nc2cc(NCCOC)c(N)cc21 [5b4] :: 1
4) CCCCNc1ccc2nc3cc(NCCCC)c(N)cc3[n+](CCC)c2c1 [5a2] :: 1
5) CCCCCCCCNc1ccc2nc3cc(NCCC)c(N)cc3[n+](CCCCCCCC)c2c1 [5e1] :: 16
